Known kon of a selection of binders
# TARGET_OR_SYSTEM: T1, human GPC3-His protein (human, UniProt P51654 25-559, limits assumed)
# T1 construct: also called human GPC3 protein; not shown: His tag
# TEST_SUMMARY: SPR, antibody captured on Protein A chip, human GPC3-His injected, 1:1 Langmuir model;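 note: flow cell at 25 °C, antigen injected for 240 s at five twofold dilutions starting at 200 nM, dissociation followed up to 600 s, double-referenced sensorgrams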
Lab book: enter the figure in M⁻¹ s⁻¹, no units written.

Here's what some known entries look like.
Exam item: Would you kindly share the measured kon for hAb006LH3L1c (antibody, human IgG1, V domains shown, Humanized F3.38.7) VH: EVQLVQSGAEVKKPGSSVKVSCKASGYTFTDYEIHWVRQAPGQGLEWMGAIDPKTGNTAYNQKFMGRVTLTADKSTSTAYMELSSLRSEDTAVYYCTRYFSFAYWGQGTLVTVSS VL: DIVMTQTPLSLPVTPGEPASISCRSSQTFVHSNRNTYLQWYLQKPGQSPQLLIYKVSNRFSGVPDRFSGSGSGTDFTLKISRVEAEDVGVYYCFQGSHVPYTFGQGTKLEIK ?
Marked response: 319000

Exam item: Now consider hAb001H2L1b (antibody, human IgG1, V domains shown, Humanized F2.169.2) VH: EVQLVESGGGLVQPGGSLRLSCAASGFSFNTNAMNWVRQAPGKGLEWVGRIRSKSNNYATYYADSVKDRFTISRDDSKSSLYLQMNSLKTEDTAVYYCVRDGYYVLFAYWGQGTLVTVSS VL: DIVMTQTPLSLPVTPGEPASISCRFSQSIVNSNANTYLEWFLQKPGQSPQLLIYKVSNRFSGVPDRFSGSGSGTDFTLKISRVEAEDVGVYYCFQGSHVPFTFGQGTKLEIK and answer again.
Marked response: 526000

Next:
Exam item: Look up kon for this binder: hAb001H1L1b (antibody, human IgG1, V domains shown, Humanized F2.169.2) VH: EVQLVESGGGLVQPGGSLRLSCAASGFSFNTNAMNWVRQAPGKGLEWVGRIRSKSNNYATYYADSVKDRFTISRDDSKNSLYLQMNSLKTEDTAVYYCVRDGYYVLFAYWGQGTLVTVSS VL: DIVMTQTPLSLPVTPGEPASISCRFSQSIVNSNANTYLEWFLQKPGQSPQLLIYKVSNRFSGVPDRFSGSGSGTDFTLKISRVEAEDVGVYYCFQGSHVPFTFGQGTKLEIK
Marked response: 4.74e+07

Source listed as patent US20260116991A1.
